Tested on: DMPK;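 also: KINOMEscan kinase panel screen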
Conditions: concentration: 1 μM, replicates: in singlicate; n = 1
METRIC: %Inh (%)

> print(dat)
                                    compound  measure.unit  obs.value
 1  CCc1ccc(-c2ccc3c(c2)-c2nn(C)cc2S(=O)(=O)N3C)cc1             %          0
 2  Nc1nc(N)c2nc(-c3ccccc3)[nH]c2n1 [SKF-12778]             %         25
 3  COc1cccc(C2=C(N(C)c3ccccc3)C(=O)NC2=O)c1 [SB-334865]             %          0
 4  COc1cc2ncn(-c3cc(OCc4ccc(S(C)(=O)=O)cc4)c(C(N)=O)s3)c2cc1OC [GW869979]             %          0
 5  OCCCNc1nccc(-c2c(-c3cccc(C(F)(F)F)c3)nn3cc(C(F)(F)F)ccc23)n1 [GW630813]             %          0
 6  COC(=O)c1c(-c2ccccc2)c2cc(Br)ccc2c(=O)n1Cc1ccc(NC(=O)CCC(=O)O)cc1             %          0
 7  COc1ccc(Nc2nccc(N3CCC(NS(=O)(=O)c4ccc(NC(C)=O)cc4)C3)n2)cc1 (stereo not shown) [GSK1379729]             %          0
 8  COc1cc2nccc(Nc3cccc(Oc4ccccc4)c3)c2cc1OC.Cl [GW284543]             %          0
 9  Cl.c1ccc(Cn2cnc3cc(Nc4ncnc5ccccc45)ccc32)cc1 [GW272142]             %          0
10  Cc1nnc(-c2ccc3ncn(-c4ccc(S(C)=O)cc4)c3c2)o1 (stereo not shown)             %          1
11  CCS(=O)c1ccc(-c2coc3ccc(-c4nnc(C)o4)cc23)cc1 (stereo not shown)             %          6
12    Nc1ncnc2c1ncn2-c1cccc(F)c1 [SKF-97560]             %          0
13  COc1ccc(-n2cnc3c(N)ncnc32)cc1 [SKF-97236]             %          6
14    Fc1cccc(CSc2nnc(-c3ccc4c(c3)CCO4)o2)c1             %          0
15  O=C(Nc1n[nH]c2nc(-c3ccccc3)c(Br)cc12)C1CC1 [SB-708998]             %          0
16  Nc1n[nH]c2ncc(-c3ccccc3)cc12 [SB-517081]             %          0
17  O=C(Nc1n[nH]c2cc(-c3ccccc3F)ccc12)C1CC1 [SB-733371]             %          0
18  Cc1cccc(-c2cc(-c3c[nH]nc3-c3ccccn3)ccn2)c1 [GW679395]             %          0
19  O=C(Nc1n[nH]c2nc(-c3ccccc3)c(Cl)cc12)C1CC1 [SB-734909]             %          0
20  Cl.NS(=O)(=O)c1cccc(Nc2cc(-c3ccc(F)cc3)n[nH]2)c1 [GW824645]             %          1
21  CCS(=O)(=O)c1ccc(OC)c(Nc2ncc(-c3ccc(F)cc3)o2)c1.Cl [GW591947]             %          6
22  COc1cc2nccc(Nc3ccc(OCc4ccc(NC(C)=O)cc4)cc3)c2cc1OC.Cl [GW440135]             %          0
23  Cc1ccc(Oc2ccc(Nc3ncnc4cc[nH]c34)cc2C)cn1             %          0
24  COc1ccc(-c2cc3c(C)nc(N)nc3n([C@H]3CC[C@H](OCCO)CC3)c2=O)cn1             %          8
25  CN(C)c1cc(-c2ccc3c(N)n[nH]c3c2)nc(N)n1 [GSK2219329]             %          0
26  CCn1c(-c2nonc2N)nc2ccccc21 [SB-693162/GW549034]             %          0
27     CCn1c(-c2ccoc2)nc2cnccc21 [SB-733887]             %          0
28  Nc1n[nH]c2nnc(-c3ccccc3)c(-c3ccccc3)c12 [GW554060]             %          0
